# Tested on: Dirofilaria immitis L1 larvae
# Procedure details: Screening against microfilaria (L1 larvae) of Dirofilaria immitis, survival/motility
# Assay type: in vivo
# Condition notes: 72 h, read-out: Ranked D. immitis L1 MED Activity
Recorded measurements of minimal effective concentration, one per entry

Some solved entries appear below for comparison.
Molecule: CN(CC1CN(S(C)(=O)=O)CCO1)c1cc(N2CC3CC(C2)O3)nc(C(F)(F)F)n1 (stereo not shown)
Recorded endpoint: minimal effective concentration
Recorded result: > 100000 µM

Molecule: CN(CC1CN(S(C)(=O)=O)CCC1(F)F)c1cc(N2CCC(F)(F)C3(CCCCC3)C2)nc(C(F)(F)F)n1 (stereo not shown)
Recorded endpoint: minimal effective concentration
Recorded result: > 100000 µM

Quick check: minimal effective concentration of CN(CC1CN(S(C)(=O)=O)CCO1)c1cc(N2CCOC3(CCCCC3)C2)nc(C(F)(F)F)n1 (racemic) ?
< 30000 µM

I'd like to know its minimal effective concentration. The molecule in question is CN(CC1CN(S(C)(=O)=O)CCO1)c1cc(N2CCS(=O)(=O)C3(CCCCC3)C2)nc(C(F)(F)F)n1 (stereo not shown)
< 30000 µM

----------
# System: Dirofilaria immitis L1 larvae
# Procedure details: Screening against microfilaria (L1 larvae) of Dirofilaria immitis, survival/motility
# Format: in vivo
# Condition notes: 72 h, read-out: Ranked D. immitis L1 MED Activity
Recorded endpoint: minimal effective concentration

Compound: CN(CC1CN(S(C)(=O)=O)CCO1)c1cc(N2CCSC3(CCCCC3)C2)nc(C(F)(F)F)n1 (stereo not shown)
Target of assay: Dirofilaria immitis L1 larvae
minimal effective concentration: < 10000 µM

Compound: CN(CC1CN(S(C)(=O)=O)CCO1)c1cc(N2CCCC3(CCC(F)(F)CC3)C2)nc(C(F)(F)F)n1 (stereo not shown)
Target of assay: Dirofilaria immitis L1 larvae
minimal effective concentration: < 30000 µM

Compound: CN(CC1CCCN(S(C)(=O)=O)C1)c1cc(N2CCCC3(CCCCC3)C2)nc(C(F)(F)F)n1 (stereo not shown)
Target of assay: Dirofilaria immitis L1 larvae
minimal effective concentration: > 100000 µM

Compound: CN(C[C@H]1CN(S(C)(=O)=O)CCO1)c1cc(N2CCCC3(CCCCC3)C2)nc(C(F)(F)F)n1
Target of assay: Dirofilaria immitis L1 larvae
minimal effective concentration: < 10000 µM

Compound: CN(CC1CN(S(C)(=O)=O)CCS1(=O)=O)c1cc(N2CCS(=O)(=O)C3(CCCCC3)C2)nc(C(F)(F)F)n1 (stereo not shown)
Target of assay: Dirofilaria immitis L1 larvae
minimal effective concentration: < 30000 µM

Looking for the measured minimal effective concentration of CN(C)S(=O)(=O)N1CC2(CN(c3cc(N4CCCC5(CCCCC5)C4)nc(C(F)(F)F)n3)C2)C1 , can you help?
> 100000 µM

Suppose we examine the compound CCN(CC1CN(S(C)(=O)=O)CCO1)c1cc(N2CCCC3(CCCCC3)C2)nc(C(F)(F)F)n1 (stereo not shown) ; what minimal effective concentration value has been reported?
< 30000 µM
